tested on: U251 CNS
Respond using exactly one of the listed classes: TRUE = active, FALSE = inactive

Qu. Which outcome did this test record for the compound COC(=O)C(C)N1C(=O)c2ccccc2I1OC(C)=O (stereo not drawn) ?
Ans. FALSE

Qu. Which outcome did this test record for the compound CCCCCCCCCCCCCCCC[N+]1(CC)CCCC1 ?
Ans. TRUE

Qu. Which outcome did this test record for the compound O=C(/C=C/N1CCN(c2cccc(C(F)(F)F)c2)CC1)c1ccc(Cl)cc1Cl ?
Ans. FALSE

---

Assignment: determine reported TGI for the given compounds.
system: RXF 393 renal; test: NCI tumour cell line growth inhibition, 48 h

Qu. Record O=C1CCSSCCC(=O)Nc2ccccc2N1 : what is its TGI with RXF 393 renal?
Ans. > 100 µM

Qu. Record CC1=NN(c2ccc(C)cc2)C2(C1)SCC(=O)N2c1nc2ccccc2s1 (stereo unspecified) : what is its TGI with RXF 393 renal?
Ans. 54.8 µM

Qu. Record CC1=NNC(N)=N/C1=C/C(Sc1ccc(Cl)cc1)c1cccs1 (stereo unspecified) : what is its TGI with RXF 393 renal?
Ans. 34.7 µM

Qu. Record Oc1cccc(-c2nc3ccccc3s2)c1 : what is its TGI with RXF 393 renal?
Ans. > 100 µM

Qu. Record c1ccc(SCCCC(Sc2ccccc2)Sc2ccccc2)cc1 : what is its TGI with RXF 393 renal?
Ans. > 100 µM

Qu. Record O=c1oc(-c2ccc(O)c(O)c2)cc2cc(O)cc(O)c12 : what is its TGI with RXF 393 renal?
Ans. > 100 µM

Qu. Record COc1ccc(/C=N/Nc2[nH]c(=S)nc3[nH]ncc23)cc1 : what is its TGI with RXF 393 renal?
Ans. > 100 µM

Qu. Record CC1CCC(O)C(C(O)CC2CC(=O)N(C)C(=O)C2)C1 (stereo unspecified) : what is its TGI with RXF 393 renal?
Ans. > 100 µM

Qu. Record c1ccc2c(c1)nc(NCCN1CCNCC1)c1c3ccccc3[nH]c21 : what is its TGI with RXF 393 renal?
Ans. 2.04 µM

Qu. Record CC(C)=CC(=O)O[C@@H]1CC(C)(C)CC2C3=CCC4[C@]56CC[C@](O)(OC5)C(C)(C)C6CC[C@@]4(C)C3(C)CC[C@]21C(=O)O (stereo partly specified) : what is its TGI with RXF 393 renal?
Ans. > 100 µM

Qu. Record Cc1ccc(NCSc2ccc(Cl)cc2)cc1 : what is its TGI with RXF 393 renal?
Ans. > 100 µM
